Cited source for all entries: patent EP1099690A1

# study_system: human plasma thrombin (Homo sapiens, UniProt P00734)
# Construct: human plasma thrombin (1 U/ml in 10 mM Mes, pH 6.0, 0.1 M NaCl, SIGMA)
# protocol_description: Inhibitory activity on other serine proteases: Thrombin (Chromozyme TH)
# condition_info: thrombin
result_type: IC50

Q) Using the record for CCOc1ccccc1C[C@@H]1C(=O)N(C(=O)NC(c2ccc(C)cc2)c2ccc(C)cc2)[C@H]1Oc1ccc(C(=O)O)cc1 , report its IC50.
A) > 100 µM

Q) Using the record for CCOc1ccccc1CC1C(=O)N(C(=O)NC(c2ccccc2)c2ccccc2)C1Oc1ccc(C(=O)O)cc1 (centres unmarked) , report its IC50.
A) > 100 µM
